Parameter: solubility in G1/S (log2). Scope: all listed entries.
- Tested on: HeLa Kyoto
- assay-details: solubility in G1/S (NP-40 vs SDS abundance) (log2 ratio); higher = more soluble
- measurement-context: cell cycle stage: G1/S
readout-name: solubility in G1/S (log2)

1. MVDLTQVMDDEVFMAFASYATIILSKMMLMSTATAFYRLTRKVFANPEDCVAFGKGENAKKYLRTDDRVERVRRAHLNDLENIIPFLGIGLLYSLSGPDPSTAILHFRLFVGARIYHTIAYLTPLPQPNRALSFFVGYGVTLSMAYRLLKSKLYL [MGST1]; -0.321
2. MAEGGGPEPGEQERRSSGPRPPSARDLQLALAELYEDEVKCKSSKSNRPKATVFKSPRTPPQRFYSSEHEYSGLNIVRPSTGKIVNELFKEAREHGAVPLNEATRASGDDKSKSFTGGGYRLGSSFCKRSEYIYGENQLQDVQILLKLWSNGFSLDDGELRPYNEPTNAQFLESVKRGEIPLELQRLVHGGQVNLDMEDHQDQEYIKPRLRFKAFSGEGQKLGSLTPEIVSTPSSPEEEDKSILNAVVLIDDSVPTTKIQIRLADGSRLIQRFNSTHRILDVRNFIVQSRPEFAALDFILVTSFPNKELTDESLTLLEADILNTVLLQQLK [UBXN2B]; 0.562
3. MEMGRRIHLELRNRTPSDVKELVLDNSRSNEGKLEGLTDEFEELEFLSTINVGLTSIANLPKLNKLKKLELSDNRVSGGLEVLAEKCPNLTHLNLSGNKIKDLSTIEPLKKLENLKSLDLFNCEVTNLNDYRENVFKLLPQLTYLDGYDRDDKEAPDSDAEGYVEGLDDEEEDEDEEEYDEDAQVVEDEEDEDEEEEGEEEDVSGEEEEDEEGYNDGEVDDEEDEEELGEEERGQKRKREPEDEGEDDD [ANP32A]; -0.297
4. MGLGPVFLLLAGIFPFAPPGAAAEPHSLRYNLTVLSWDGSVQSGFLTEVHLDGQPFLRCDRQKCRAKPQGQWAEDVLGNKTWDRETRDLTGNGKDLRMTLAHIKDQKEGLHSLQEIRVCEIHEDNSTRSSQHFYYDGELFLSQNLETKEWTMPQSSRAQTLAMNVRNFLKEDAMKTKTHYHAMHADCLQELRRYLKSGVVLRRTVPPMVNVTRSEASEGNITVTCRASGFYPWNITLSWRQDGVSLSHDTQQWGDVLPDGNGTYQTWVATRICQGEEQRFTCYMEHSGNHSTHPVPSGKVLVLQSHWQTFHVSAVAAAAIFVIIIFYVRCCKKKTSAAEGPELVSLQVLDQHPVGTSDHRDATQLGFQPLMSDLGSTGSTEGA [MICA]; -0.128
5. MPELAVQKVVVHPLVLLSVVDHFNRIGKVGNQKRVVGVLLGSWQKKVLDVSNSFAVPFDEDDKDDSVWFLDHDYLENMYGMFKKVNARERIVGWYHTGPKLHKNDIAINELMKRYCPNSVLVIIDVKPKDLGLPTEAYISVEEVHDDGTPTSKTFEHVTSEIGAEEAEEVGVEHLLRDIKDTTVGTLSQRITNQVHGLKGLNSKLLDIRSYLEKVATGKLPINHQIIYQLQDVFNLLPDVSLQEFVKAFYLKTNDQMVVVYLASLIRSVVALHNLINNKIANRDAEKKEGQEKEESKKDRKEDKEKDKDKEKSDVKKEEKKEKK [PSMD7]; 0.121
6. MAAQIPESDQIKQFKEFLGTYNKLTETCFLDCVKDFTTREVKPEETTCSEHCLQKYLKMTQRISMRFQEYHIQQNEALAAKAGLLGQPR [TIMM9]; -0.307

###

Parameter: thermal stability score. Scope: all listed entries.
- Tested on: HeLa Kyoto
- assay-details: thermal stability score vs G1/S (z-score of summed log2 fold changes over temperatures); higher = more thermally stable than in G1/S
- measurement-context: cell cycle stage: mitosis
readout-name: thermal stability score

1. MAAAAASLRGVVLGPRGAGLPGARARGLLCSARPGQLPLRTPQAVALSSKSGLSRGRKVMLSALGMLAAGGAGLAMALHSAVSASDLELHPPSYPWSHRGLLSSLDHTSIRRGFQVYKQVCASCHSMDFVAYRHLVGVCYTEDEAKELAAEVEVQDGPNEDGEMFMRPGKLFDYFPKPYPNSEAARAANNGALPPDLSYIVRARHGGEDYVFSLLTGYCEPPTGVSLREGLYFNPYFPGQAIAMAPPIYTDVLEFDDGTPATMSQIAKDVCTFLRWASEPEHDHRKRMGLKMLMMMALLVPLVYTIKRHKWSVLKSRKLAYRPPK [CYC1]; -6.58
2. MDGETAEEQGGPVPPPVAPGGPGLGGAPGGRREPKKYAVTDDYQLSKQVLGLGVNGKVLECFHRRTGQKCALKLLYDSPKARQEVDHHWQASGGPHIVCILDVYENMHHGKRCLLIIMECMEGGELFSRIQERGDQAFTEREAAEIMRDIGTAIQFLHSHNIAHRDVKPENLLYTSKEKDAVLKLTDFGFAKETTQNALQTPCYTPYYVAPEVLGPEKYDKSCDMWSLGVIMYILLCGFPPFYSNTGQAISPGMKRRIRLGQYGFPNPEWSEVSEDAKQLIRLLLKTDPTERLTITQFMNHPWINQSMVVPQTPLHTARVLQEDKDHWDEVKEEMTSALATMRVDYDQVKIKDLKTSNNRLLNKRRKKQAGSSSASQGCNNQ [MAPKAPK3]; 1.45
3. MPKVKRSRKAPPDGWELIEPTLDELDQKMREAETEPHEGKRKVESLWPIFRIHHQKTRYIFDLFYKRKAISRELYEYCIKEGYADKNLIAKWKKQGYENLCCLRCIQTRDTNFGTNCICRVPKSKLEVGRIIECTHCGCRGCSG [BUD31]; 0.411

###

- Tested on: HeLa Kyoto
- assay-details: melting temperature (median over replicates), in situ; higher = more thermally stable
- measurement-context: cell cycle stage: G1/S
readout-name: melting temperature (°C)

1. MVLLTMIARVADGLPLAASMQEDEQSGRDLQQYQSQAKQLFRKLNEQSPTRCTLEAGAMTFHYIIEQGVCYLVLCEAAFPKKLAFAYLEDLHSEFDEQHGKKVPTVSRPYSFIEFDTFIQKTKKLYIDSRARRNLGSINTELQDVQRIMVANIEEVLQRGEALSALDSKANNLSSLSKKYRQDAKYLNMRSTYAKLAAVAVFFIMLIVYVRFWWL [SEC22B]; 51.3
2. MVGGGGVGGGLLENANPLIYQRSGERPVTAGEEDEQVPDSIDAREIFDLIRSINDPEHPLTLEELNVVEQVRVQVSDPESTVAVAFTPTIPHCSMATLIGLSIKVKLLRSLPQRFKMDVHITPGTHASEHAVNKQLADKERVAAALENTHLLEVVNQCLSARS [FAM96B]; 50.3
3. MPFPFGKSHKSPADIVKNLKESMAVLEKQDISDKKAEKATEEVSKNLVAMKEILYGTNEKEPQTEAVAQLAQELYNSGLLSTLVADLQLIDFEGKKDVAQIFNNILRRQIGTRTPTVEYICTQQNILFMLLKGYESPEIALNCGIMLRECIRHEPLAKIILWSEQFYDFFRYVEMSTFDIASDAFATFKDLLTRHKLLSAEFLEQHYDRFFSEYEKLLHSENYVTKRQSLKLLGELLLDRHNFTIMTKYISKPENLKLMMNLLRDKSRNIQFEAFHVFKVFVANPNKTQPILDILLKNQAKLIEFLSKFQNDRTEDEQFNDEKTYLVKQIRDLKRPAQQEA [CAB39]; 54.3
4. MAQETNHSQVPMLCSTGCGFYGNPRTNGMCSVCYKEHLQRQNSSNGRISPPATSVSSLSESLPVQCTDGSVPEAQSALDSTSSSMQPSPVSNQSLLSESVASSQLDSTSVDKAVPETEDVQASVSDTAQQPSEEQSKSLEKPKQKKNRCFMCRKKVGLTGFECRCGNVYCGVHRYSDVHNCSYNYKADAAEKIRKENPVVVGEKIQKI [ZFAND6]; 56.7
5. MLSVASRSGPFAPVLSATSRGVAGALRPLVQATVPATPEQPVLDLKRPFLSRESLSGQAVRRPLVASVGLNVPASVCYSHTDIKVPDFSEYRRLEVLDSTKSSRESSEARKGFSYLVTGVTTVGVAYAAKNAVTQFVSSMSASADVLALAKIEIKLSDIPEGKNMAFKWRGKPLFVRHRTQKEIEQEAAVELSQLRDPQHDLDRVKKPEWVILIGVCTHLGCVPIANAGDFGGYYCPCHGSHYDASGRIRLGPAPLNLEVPTYEFTSDDMVIVG [UQCRFS1]; 55.6
6. MGFIFSKSMNESMKNQKEFMLMNARLQLERQLIMQSEMRERQMAMQIAWSREFLKYFGTFFGLAAISLTAGAIKKKKPAFLVPIVPLSFILTYQYDLGYGTLLERMKGEAEDILETEKSKLQLPRGMITFESIEKARKEQSRFFIDK [PLGRKT]; 56.5
7. MSDGDYDYLIKFLALGDSGVGKTSVLYQYTDGKFNSKFITTVGIDFREKRVVYRASGPDGATGRGQRIHLQLWDTAGQERFRSLTTAFFRDAMGFLLLFDLTNEQSFLNVRNWISQLQMHAYCENPDIVLCGNKSDLEDQRVVKEEEAIALAEKYGIPYFETSAANGTNISQAIEMLLDLIMKRMERCVDKSWIPEGVVRSNGHASTDQLSEEKEKGACGC [RAB27A]; 52.7
8. MGTKAQVERKLLCLFILAILLCSLALGSVTVHSSEPEVRIPENNPVKLSCAYSGFSSPRVEWKFDQGDTTRLVCYNNKITASYEDRVTFLPTGITFKSVTREDTGTYTCMVSEEGGNSYGEVKVKLIVLVPPSKPTVNIPSSATIGNRAVLTCSEQDGSPPSEYTWFKDGIVMPTNPKSTRAFSNSSYVLNPTTGELVFDPLSASDTGEYSCEARNGYGTPMTSNAVRMEAVERNVGVIVAAVLVTLILLGILVFGIWFAYSRGHFDRTKKGTSSKKVIYSQPSARSEGEFKQTSSFLV [F11R]; 58.9
9. MNHSERFVFIAEWYDPNASLLRRYELLFYPGDGSVEMHDVKNHRTFLKRTKYDNLHLEDLFIGNKVNVFSRQLVLIDYGDQYTARQLGSRKEKTLALIKPDAISKAGEIIEIINKAGFTITKLKMMMLSRKEALDFHVDHQSRPFFNELIQFITTGPIIAMEILRDDAICEWKRLLGPANSGVARTDASESIRALFGTDGIRNAAHGPDSFASAAREMELFFPSSGGCGPANTAKFTNCTCCIVKPHAVSEGLLGKILMAIRDAGFEISAMQMFNMDRVNVEEFYEVYKGVVTEYHDMVTEMYSGPCVAMEIQQNNATKTFREFCGPADPEIARHLRPGTLRAIFGKTKIQNAVHCTDLPEDGLLEVQYFFKILDN [NME7]; 48.9
10. MEMGRRIHLELRNRTPSDVKELVLDNSRSNEGKLEGLTDEFEELEFLSTINVGLTSIANLPKLNKLKKLELSDNRVSGGLEVLAEKCPNLTHLNLSGNKIKDLSTIEPLKKLENLKSLDLFNCEVTNLNDYRENVFKLLPQLTYLDGYDRDDKEAPDSDAEGYVEGLDDEEEDEDEEEYDEDAQVVEDEEDEDEEEEGEEEDVSGEEEEDEEGYNDGEVDDEEDEEELGEEERGQKRKREPEDEGEDDD [ANP32A]; 52.3
11. MTSALENYINRTVAVITSDGRMIVGTLKGFDQTINLILDESHERVFSSSQGVEQVVLGLYIVRGDNVAVIGEIDEETDSALDLGNIRAEPLNSVAH [LSM8]; 57.1
12. MARVLKAAAANAVGLFSRLQAPIPTVRASSTSQPLDQVTGSVWNLGRLNHVAIAVPDLEKAAAFYKNILGAQVSEAVPLPEHGVSVVFVNLGNTKMELLHPLGRDSPIAGFLQKNKAGGMHHICIEVDNINAAVMDLKKKKIRSLSEEVKIGAHGKPVIFLHPKDCGGVLVELEQA [MCEE]; 57.8

The reported measurements were obtained from the supplement of paper PMC5998384.
